Tested on: XIP peptide (Xip251-270)
assayProtocol: small-molecule binders of XIP peptide, primary screen, biochemical, small-molecule microarray, fluorescence 635/667 nm, 0.5 µg/mL protein (AID 1183)
runConditions: small-molecule microarray binding, fluorescence 635 nm; higher = more signal
measuredParameter: composite z-score

| compound | measuredResult |
| --- | --- |
| CCN1C(=O)[C@H]2[C@H]3[C@H](O)[C@H](O)CC(=NOCc4ccccc4)[C@H]3CC[C@H]2C1=O | 0.172 |
| CC(CCN1CCc2nc(-c3ccccc3)c(-c3ccccc3)cc2C1)=NO[C@@H](C)c1cn([C@H](CO)Cc2ccccc2)nn1 | -0.346 |
| CC[C@@H](c1ccccc1)n1c(=O)n2n(c1=O)[C@H]1[C@H](O)[C@@H]3O[C@@H]3C(=NOCC=C(C)CCC=C(C)C)[C@H]1CC2 | 0.4 |
| C=C(/C(=C/C[C@@H](OC(=O)c1ccncc1)c1ccc(OCCO)cc1)c1cnc2ccccc2c1)C(C)C | 0.565 |
| CC=CC1=C(CO)[C@H](O)[C@H]2O[C@H]2[C@H]1O | -0.229 |
| CCOC(=O)C1=CC[C@H]2C(=O)N(CC)C(=O)[C@@H]12 | 0.343 |
| COC(=O)C1=CCC(c2cccc(Cl)c2)O1 (stereo unspecified) | 0.45 |
| COCCOC(=O)N1C(=O)[C@@]2(c3ccccc31)[C@H](C(N)=O)[C@H]1C(=O)O[C@H](c3ccccc3)[C@H](c3ccccc3)N1[C@@H]2c1ccccc1OCCO | 0.801 |
| CCOC(=O)CCN1C(=O)[C@H]2[C@H]3[C@H](O)C=CC(=O)[C@@H]3CC[C@H]2C1=O | 0.0156 |
| CCCC[C@H]1OB(O)C[C@H]2C1=C(C)C[C@H]1C(=O)N(C)C(=O)[C@H]12 | 0.608 |
| CCOC(=O)[C@H](Cc1ccccc1)NC(=O)CCC1CC(OC(=O)NCc2ccc3c(c2)OCO3)CC2(CCCC(COC(=O)NCc3cccc(C(F)(F)F)c3)O2)O1 (stereo partly specified) | 0.109 |
| CC(=O)OC[C@H]1O[C@H](CCON=C[C@@H](C)[C@H](OCc2ccccc2)C(C)C)C=C[C@@H]1OC(C)=O | 0.165 |
| COC(=O)C1=C(C)N(Cc2ccccc2)[C@]23O[C@](C(=O)OC)(C(=O)N2[C@@H]1c1ccccc1)[C@H]1CCOC(=O)[C@H]13 | -0.202 |
| COc1ccc(COC(=O)NN=C2C[C@@H](O)[C@@H](O)[C@@H]3[C@@H]4C(=O)N(Cc5ccc6c(c5)OCO6)C(=O)[C@@H]4CC[C@@H]23)cc1 | -0.239 |
| Cc1ccc(F)cc1S(=O)(=O)N[C@@H]1CCN(Cc2ccc(CC(C)C)cc2)C1 | -0.583 |
| CC(=O)OC[C@H]1O[C@H](CCON=C(C)CCN2CCc3nc(-c4ccccc4)c(-c4ccccc4)cc3C2)C=C[C@@H]1OC(C)=O | -0.0332 |
